Where do these numbers come from? They come from PubChem BioAssay AID1398.

# target or test system: Signal transducer and activator of transcription 3 (Homo sapiens) (UniProt P40763)
# assay: STAT3 activation reporter response, dose response, cell-based (AID 1398)
Activity calls are given as the source filed them. No rule for the calls is given here.
Give one outcome, nothing more. List: T (active), F (inactive)

compound	target or test system	assigned class
O=C(Cc1cnc2ncnn2c1)N1CCc2c([nH]c3ccccc23)C1c1ccccc1F (stereo not given)	Signal transducer and activator of transcription 3 (Homo sapiens) (UniProt P40763)	F
NC(=O)CSc1c[nH]c2ccccc12	Signal transducer and activator of transcription 3 (Homo sapiens) (UniProt P40763)	F
Cc1ccc(CC(=O)Nc2nc3c(s2)CCCC3)cc1	Signal transducer and activator of transcription 3 (Homo sapiens) (UniProt P40763)	F
N#Cc1cn(CC(=O)O)c2ccccc12	Signal transducer and activator of transcription 3 (Homo sapiens) (UniProt P40763)	T
CN1N=C(C(=O)N2CCc3c([nH]c4ccccc34)C2c2c(F)cccc2Cl)CCC1=O (stereo not given)	Signal transducer and activator of transcription 3 (Homo sapiens) (UniProt P40763)	T
CCC(=O)NCCSc1c[nH]c2ccccc12	Signal transducer and activator of transcription 3 (Homo sapiens) (UniProt P40763)	F
CCOc1ccccc1CN1CCN(Cc2cc3ccccc3[nH]2)CC1CCO (stereo not given)	Signal transducer and activator of transcription 3 (Homo sapiens) (UniProt P40763)	F
CC(=O)NCCC(=O)N1CCc2c([nH]c3ccccc23)C1c1cccc(C)c1 (stereo not given)	Signal transducer and activator of transcription 3 (Homo sapiens) (UniProt P40763)	T
CCOc1ccccc1-c1n[nH]c(=S)o1	Signal transducer and activator of transcription 3 (Homo sapiens) (UniProt P40763)	T

We next turn to a different compound, shown below.
Task item: What is the recorded call for this compound in the test? CCOC(=O)CC1C(=O)NCCN1C(=O)c1cc2c(=O)n3cccc(C)c3nc2s1 (stereo not given)
Reply: F

###

# target or test system: Signal transducer and activator of transcription 3 (Homo sapiens) (UniProt P40763)
# assay: STAT3 activation reporter response, dose response, cell-based (AID 1398)
The source made the active and inactive calls. The rule behind the calls is not given here.
Give one outcome, nothing more. List: active, inactive

Task item: What is the recorded call for this compound in the test? CCN(CC)S(=O)(=O)c1ccc(-c2nnc3sc4cccc(C)c4n23)cc1
Reply: inactive

Task item: What is the recorded call for this compound in the test? CC(=O)n1cc(Nc2ccc([N+](=O)[O-])cc2)c2ccccc21
Reply: inactive

Task item: What is the recorded call for this compound in the test? CCOC(=O)C1(CC2CCCCO2)CCN(Cc2cc3ccccc3[nH]2)CC1 (configuration not stated)
Reply: inactive

Task item: What is the recorded call for this compound in the test? O=C(CCc1nnc(Cc2ccc3c(c2)OCO3)o1)NCc1nc2ccccc2s1
Reply: active

###

# target or test system: Signal transducer and activator of transcription 3 (Homo sapiens) (UniProt P40763)
# assay: STAT3 activation reporter response, dose response, cell-based (AID 1398)
Activity calls are given as the source filed them. How the calls were made is not given here.
Give one outcome, nothing more. List: y = active, n = inactive

compound	assigned class
COCc1cc(C)nc2sc(C(=O)NN)c(-n3cccc3)c12	n

Task item: What is the recorded call for this compound in the test? Cn1nc(-c2ccc(Cl)cc2)c2cc(C(=O)NCCN3CCOCC3)sc21
Reply: y

Task item: What is the recorded call for this compound in the test? CCCN(CCC)C(=O)Cn1c2ccccc2c2nc(=O)cc(C)n21
Reply: y

Task item: What is the recorded call for this compound in the test? c1ccc2c(c1)CCCN2c1nc2ccccc2n2cnnc12
Reply: y

Task item: What is the recorded call for this compound in the test? COC(=O)c1n[nH]c2ccccc12
Reply: y

Task item: What is the recorded call for this compound in the test? CN1C(=O)c2ccccc2C(C(=O)NCCCN2CCCC2=O)C1c1c[nH]c2ccccc12 (stereo not drawn)
Reply: n
